experiment: Mouse liver microsome stability (MLM); format: in vitro ADME; conditions: % remaining at 30 min, mouse microsomes
MEASURE: MLM (% rem)

INSERT INTO results (compound, observed_value) VALUES
  ('CC(C)CCNc1ccc(-c2cnc3ccc(NC4CCN(C)C4)nn23)cn1 (stereo not shown)', 74),
  ('CC(C)CCNc1ccc(-c2cnc3ccc(N4CCC(N(C)C)CC4)nn23)cn1', 84);

A. CC(C)CCNc1ccc(-c2cnc3ccc(N4CCC(N)CC4)nn23)cn1
B. CC(C)CCNc1ccc(-c2cnc3ccc(NC4CCN(C)CC4)nn23)cn1
In: Quick check, higher MLM (% rem) between A and B ? To answer, give the label that identifies your chosen option.
Out: A
(A: 90 % rem, B: 63 % rem)

###

experiment: Human liver microsome stability (HLM); type: in vitro ADME; conditions: % remaining at 30 min, human microsomes
MEASURE: HLM (% rem)

INSERT INTO measurements (compound, observed_value) VALUES
  ('CC(C)CCNc1ccc(-c2cnc3ccc(N4CCC(N(C)C)CC4)nn23)cn1 [Compound 27]', 80),
  ('CC(C)CCNc1ccc(-c2cnc3ccc(NC4CCN(C)C4)nn23)cn1 (stereo not shown) [Compound 24]', 63),
  ('CC(C)CCNc1ccc(-c2cnc3ccc(N4CCC(N)CC4)nn23)cn1 [Compound 28]', 90),
  ('CC(C)CCNc1ccc(-c2cnc3ccc(NC4CCN(C)CC4)nn23)cn1 [Compound 17]', 85);

###

biological target: PfCDPK1 (Plasmodium falciparum, UniProt P62344); test: PfCDPK1 enzyme inhibition (Kinase-Glo ATP depletion); conditions: isolated recombinant enzyme
Sequence (P62344 whole entry): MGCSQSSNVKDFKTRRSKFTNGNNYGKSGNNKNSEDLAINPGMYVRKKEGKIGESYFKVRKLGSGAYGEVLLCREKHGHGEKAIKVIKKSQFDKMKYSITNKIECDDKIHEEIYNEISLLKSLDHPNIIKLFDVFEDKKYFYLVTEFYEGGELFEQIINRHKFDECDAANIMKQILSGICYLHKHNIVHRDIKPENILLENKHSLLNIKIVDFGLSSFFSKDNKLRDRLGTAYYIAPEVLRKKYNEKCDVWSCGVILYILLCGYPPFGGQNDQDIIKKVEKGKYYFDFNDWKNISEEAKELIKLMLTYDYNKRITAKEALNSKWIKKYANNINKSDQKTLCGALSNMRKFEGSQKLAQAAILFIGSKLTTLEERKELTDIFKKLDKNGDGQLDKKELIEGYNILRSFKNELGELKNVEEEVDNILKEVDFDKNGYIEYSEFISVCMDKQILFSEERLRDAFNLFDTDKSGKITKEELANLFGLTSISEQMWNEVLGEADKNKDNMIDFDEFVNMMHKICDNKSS
MEASURE: IC50 (nM)

In the examples that follow, each entry is paired with its recorded IC50.
INSERT INTO measurements (compound, system_under_test, measure, measurement_units, observed_value) VALUES
  ('N#Cc1ccc(-c2cnc3ccc(NCCc4cccnc4)nn23)cc1 [Compound 4]', 'PfCDPK1 (Plasmodium falciparum, UniProt P62344)', 'IC50', 'nM', 71),
  ('CN1CCC(Nc2ccc3ncc(-c4cccc(NC(=O)C5CC5)c4)n3n2)CC1 [Compound 7]', 'PfCDPK1 (Plasmodium falciparum, UniProt P62344)', 'IC50', 'nM', 22);

1. COC(=O)Nc1cccc(-c2cnc3ccc(NC4CCN(C)CC4)nn23)c1 [Compound 8]
2. CC(C)CCNc1ccc(-c2cnc3ccc(NC4CN(C)C4)nn23)cn1 [Compound 25]
In: Given 1 and given 2 , which shows the smaller recorded IC50? To answer, give the label that identifies your chosen option.
Out: 1
(1: 18 nM, 2: 89 nM)

A. CC(C)CCOc1ccc(-c2cnc3ccc(N[C@H]4CC[C@H](N)CC4)nn23)cn1 [Compound 30]
B. CC(C)CCNc1nccc(-c2cnc3ccc(NC4CCN(C)CC4)nn23)n1 [Compound 33]
C. NC(=O)c1ccc(-c2cnc3ccc(NCCc4cccnc4)nn23)cc1 [Compound 1]
D. CC(C)CCNc1ccc(-c2cnc3ccc(NC4CCN(C)C4)nn23)cn1 (stereo not shown) [Compound 24]
E. CCCCNc1ccc(-c2cnc3ccc(NC4CCN(C)CC4)nn23)cn1 [Compound 18]
In: Ascending by IC50, please: list the compounds accordingly. Put the labels in the requested order and write them down.
Out: E, D, C, A, B
(E: 14 nM, D: 23 nM, C: 59 nM, A: 170 nM, B: 424 nM)

I. NC(=O)c1ccc(-c2cnc3ccc(NCCc4ccccn4)nn23)cc1 [Compound 2]
II. COCCNc1ccc(-c2cnc3ccc(NC4CCN(C)CC4)nn23)cn1 [Compound 20]
In: Given I and given II , which shows the smaller recorded IC50? To answer, give the label that identifies your chosen option.
Out: II

A. CN1CCC(Nc2ccc3ncc(-c4ccc(NCC5CC5)nc4)n3n2)CC1 [Compound 19]
B. CC(C)CCNc1ccc(-c2cnc3ccc(N4CCN(C)CC4)nn23)cn1 [Compound 26]
In: Given A and given B , which shows the smaller recorded IC50? To answer, give the label that identifies your chosen option.
Out: A
(A: 36 nM, B: 175 nM)
